molecular target: T1, human brain natriuretic peptide, cyclic BNP (1-32c) (human, cyclic: ring closed by a disulfide bond between the two cysteine residues; biotinylated or acridinium-labelled in some assays); assay: off-rate assay on yeast-displayed scFv by flow cytometry: biotinylated cyclic BNP (1-32c), chase with unlabelled BNP 1-32c, SA:PE, first order decay fit
T1 construct: also called hBNP; hBNP 1-32

>  <Binder>
L2 4 (scFv, selected by equilibrium sorting; member of group m17) scFv (VH-linker-VL with V5 and 6His tags), displayed on yeast: QVQLQQPGAELVRPGASVKLSCKASGYTFTSYWMNWVKQRPEQGLEWIGRIDPYDSETHYNQKFKDKAILTVDKSSSTAFVQLTSLTSEDSAVYYCVSDGYWGAGTTVTVSSGPAKELTPLKEAKVSDVVMTQTPLTLSVTTGQPASISCKSSQSLLDSDGKTYLNWLFQRPGESPKLLIYHTTKLESGVPDRFTGSGSGTDFTLKISRVEAEDLGVYYCLQATHFPWTFGGGTKLEIKRAAALESRGPFEGKPIPNPLLGLDSTRTGHHHHHH

>  <koff / s⁻¹>
0.0014

$$$$
>  <Binder>
500-1 (scFv, selected by on/off-rate sorting; member of group m17) scFv (VH-linker-VL with V5 and 6His tags), displayed on yeast: QVQLQQPGAELVRPGASVKLSCKASGYTFTSYWMNWVKQRPEQGLEWIGRIDPYDSETHYNQKFKDKAILTVDKSSSTAFVQLTSLTSEDSAVYYCVSDGYWGAGTTVTVSSGPAKELTPLKEAKVSDVVMTQTPLTLSVTTGQPASISCKSSQSLLDSDGKTYLNWLFQRPGESPKLLIYWMDKLESGVPDRFTGSGSGTDFTLKISRVEAEDLGVYYCLQATHFPWTFGGGTKLEIKRAAALESRGPFEGKPIPNPLLGLDSTRTGHHHHHH

>  <koff / s⁻¹>
0.00053

$$$$
>  <Binder>
L2 1 (scFv, selected by equilibrium sorting; member of group m17) scFv (VH-linker-VL with V5 and 6His tags), displayed on yeast: QVQLQQPGAELVRPGASVKLSCKASGYTFTSYWMNWVKQRPEQGLEWIGRIDPYDSETHYNQKFKDKAILTVDKSSSTAFVQLTSLTSEDSAVYYCVSDGYWGAGTTVTVSSGPAKELTPLKEAKVSDVVMTQTPLTLSVTTGQPASISCKSSQSLLDSDGKTYLNWLFQRPGESPKLLIYQNTKLESGVPDRFTGSGSGTDFTLKISRVEAEDLGVYYCLQATHFPWTFGGGTKLEIKRAAALESRGPFEGKPIPNPLLGLDSTRTGHHHHHH

>  <koff / s⁻¹>
0.00025

$$$$
